- TEST_SUMMARY: Caco-2 permeability assay
- Assay type: in vitro ADME
- STUDY_CONDITIONS: human, A-B, read-out: Caco-2 permeability PappA-B

| SMILES_TEXT | Papp |
| --- | --- |
| Cc1[nH]c2c(c(=O)c1-c1ccc(Oc3ccc(OC(F)(F)F)cc3)cc1)CCCC2 | > 10 ×10⁻⁶ cm/s |

====

- TEST_SUMMARY: physchem
- STUDY_CONDITIONS: pH 7.4
solubility: recorded values
MEASURE_NAME: solubility (µM)

| SMILES_TEXT | MEASURE_NAME | MEASURE_UNIT | EXPERIMENTAL_RESULT |
| --- | --- | --- | --- |
| Cc1[nH]c2c(c(=O)c1-c1ccc(Oc3ccc(Cl)cc3)cc1)CCCC2 | solubility | µM | 16.4 |
| Cc1[nH]c2c(c(=O)c1-c1ccc(Oc3ccc(OC(F)(F)F)cc3)cc1)CCCC2 | solubility | µM | 7.07 |
